assay: Stability in human plasma; conditions: after 4 hours, 37° C.
Lab note: anything with residual percentage in HUMAN PLASMA at or over 90% counts as TRUE; the rest go in FALSE.

See these solved cases before continuing.
compound="C[C@H](c1ccc(-c2nnc(C(F)F)o2)cn1)n1cc(-c2ccc(N)nc2)nn1 [Compd. 32]" classification=TRUE
compound="CCNC(=O)c1cccc(-c2nnn(Cc3ccc(-c4nnc(C(F)F)o4)cc3)n2)c1 [compound 91]" classification=FALSE
compound="O=C1NCc2ccc(-c3nnn(Cc4c(F)cc(-c5nnc(C(F)F)o5)cc4F)n3)cc21 [compound 57]" classification=FALSE

Is the recorded value of residual percentage in HUMAN PLASMA equal to or greater than 90% for this compound? FC(F)c1nnc(-c2ccc(Cn3cnc(-c4ccc(NC5=NCCN5)cc4)c3)nc2)o1 [compound 20]
TRUE

Item Nc1nc2cc(-c3cn(Cc4ccc(-c5nnc(C(F)F)o5)cn4)nn3)ccc2s1 [Compd. 3] with residual percentage in HUMAN PLASMA of 90% or above?
FALSE

Entry Nc1ccc(-c2cn(Cc3ccc(-c4nnc(C(F)F)o4)cc3)cn2)cn1 [compound 151] : is its residual percentage in HUMAN PLASMA no less than 90%?
TRUE

Check the entry Nc1nc2cc(-c3cn(Cc4ccc(-c5nnc(C(F)F)o5)cc4)nn3)ccc2[nH]1 [Compd. 8] : does residual percentage in HUMAN PLASMA equal or exceed 90%?
TRUE

Hello, I need to know if Nc1ccc(-c2cn(C(CN3CCCC3)c3ccc(-c4nnc(C(F)F)o4)cc3)nn2)cn1 (centres unmarked) [Compd. 124] has measured residual percentage in HUMAN PLASMA not below 90%. Thanks!
TRUE

Dear colleague, could you confirm whether Fc1cc(-c2nnc(C(F)F)o2)cc(F)c1Cn1cc(-c2cnc3cccnn23)nn1 [compound 67] has residual percentage in HUMAN PLASMA at or above 90%?
FALSE

Please check the record CCNc1ccc(-c2nnn(Cc3ccc(-c4nnc(C(F)F)o4)cc3)n2)cn1 [compound 99] and state if its residual percentage in HUMAN PLASMA is at or above 90%.
FALSE

----------
target: recombinant human HDAC6 (Homo sapiens (Human)); test: Enzymatic screening, HDAC6 inhibition (fluorogenic FdL_G substrate)
Sequence (Q9UBN7 whole entry): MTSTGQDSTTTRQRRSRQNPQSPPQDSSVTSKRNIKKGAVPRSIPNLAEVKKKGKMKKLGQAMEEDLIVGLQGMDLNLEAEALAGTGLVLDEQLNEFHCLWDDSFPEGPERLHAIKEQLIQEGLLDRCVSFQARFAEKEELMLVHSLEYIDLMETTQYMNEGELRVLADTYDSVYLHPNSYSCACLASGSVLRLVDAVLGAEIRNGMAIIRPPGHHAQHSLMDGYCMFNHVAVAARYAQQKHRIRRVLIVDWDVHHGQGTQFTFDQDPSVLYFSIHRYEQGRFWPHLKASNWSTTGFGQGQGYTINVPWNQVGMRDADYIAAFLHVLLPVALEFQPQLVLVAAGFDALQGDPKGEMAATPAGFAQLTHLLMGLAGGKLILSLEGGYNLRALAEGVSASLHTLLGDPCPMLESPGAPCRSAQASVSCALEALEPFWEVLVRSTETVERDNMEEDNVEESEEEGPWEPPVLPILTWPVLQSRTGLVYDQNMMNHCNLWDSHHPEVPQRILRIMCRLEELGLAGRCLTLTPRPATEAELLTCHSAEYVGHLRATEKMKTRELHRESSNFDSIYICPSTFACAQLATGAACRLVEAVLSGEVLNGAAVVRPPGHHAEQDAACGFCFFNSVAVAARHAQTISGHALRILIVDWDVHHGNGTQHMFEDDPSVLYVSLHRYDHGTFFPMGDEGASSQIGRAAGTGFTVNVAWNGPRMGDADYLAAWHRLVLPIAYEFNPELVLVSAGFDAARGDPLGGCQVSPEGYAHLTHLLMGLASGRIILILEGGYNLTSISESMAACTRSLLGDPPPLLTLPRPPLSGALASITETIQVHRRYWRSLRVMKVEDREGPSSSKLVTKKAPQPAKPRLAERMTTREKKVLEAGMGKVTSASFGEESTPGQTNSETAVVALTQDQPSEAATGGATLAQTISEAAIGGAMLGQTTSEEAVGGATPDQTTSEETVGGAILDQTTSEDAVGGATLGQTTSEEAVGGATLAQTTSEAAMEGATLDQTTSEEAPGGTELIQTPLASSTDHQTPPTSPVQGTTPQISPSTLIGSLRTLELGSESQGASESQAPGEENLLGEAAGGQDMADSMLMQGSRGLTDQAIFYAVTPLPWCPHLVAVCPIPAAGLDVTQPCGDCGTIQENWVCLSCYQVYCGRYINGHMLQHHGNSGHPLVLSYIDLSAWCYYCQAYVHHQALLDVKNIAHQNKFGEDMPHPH
Measured parameter: pIC50
Quick note: pIC50 values are minus log10 of concentrations in mol/L.

chem_smiles=Nc1nc2cc(-c3cn(Cc4ccc(-c5nnc(C(F)F)o5)cn4)nn3)ccc2s1 reported=8.00
chem_smiles=Nc1ccc(-c2cn(Cc3c(F)cc(-c4nnc(C(F)F)o4)cc3F)nn2)cn1 reported=7.72
chem_smiles=NC(=O)c1cccc(-c2nnn(Cc3ccc(-c4nnc(C(F)F)o4)cc3)n2)c1 reported=7.49
chem_smiles=O=C1Nc2ccc(-c3cn(Cc4ccc(-c5nnc(C(F)F)o5)cc4)nn3)cc2C12CCCC2 reported=7.57
chem_smiles=FC(F)c1nnc(-c2ccc(Cn3nnc(-c4cncc(Br)c4)n3)cc2)o1 reported=7.48
chem_smiles=Fc1cc(-c2nnc(C(F)F)o2)c(F)cc1Cn1nnc(-c2cccc(-c3nc4c([nH]3)CCNC4)c2)n1 reported=7.59
chem_smiles=Nc1ncnc2cc(-c3cn(Cc4ccc(-c5nnc(C(F)F)o5)cc4Cl)nn3)ccc12 reported=7.23

Now for the compound whose pIC50 we want.
Briefly, pIC50 measured for O=C1NCCc2ccc(-c3nnn(Cc4ccc(-c5nnc(C(F)F)o5)cc4)n3)cc21 : 7.48
